Data credit: patent US20240270821A1

Assay System: hGIPR (Homo sapiens)
Sequence (P48546 22-466): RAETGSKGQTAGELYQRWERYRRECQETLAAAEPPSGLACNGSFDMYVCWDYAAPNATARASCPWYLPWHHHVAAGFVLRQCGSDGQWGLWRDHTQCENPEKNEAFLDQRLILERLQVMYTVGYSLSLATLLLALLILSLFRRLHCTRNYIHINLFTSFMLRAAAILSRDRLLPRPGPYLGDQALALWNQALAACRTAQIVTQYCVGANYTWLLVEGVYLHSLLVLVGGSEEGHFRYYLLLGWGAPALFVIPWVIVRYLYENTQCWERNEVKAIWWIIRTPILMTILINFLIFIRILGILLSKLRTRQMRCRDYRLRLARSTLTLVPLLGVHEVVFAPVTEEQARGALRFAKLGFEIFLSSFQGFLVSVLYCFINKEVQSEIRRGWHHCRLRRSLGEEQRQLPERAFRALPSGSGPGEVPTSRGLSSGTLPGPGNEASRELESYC
Run Description: Functional cAMP activation in the presence of 0.1% casein (no HSA);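 further: intracellular cAMP rise after 30 min at 37 °C read by HTRF against a standard curve, scaled between buffer alone (0%) and top control ligand concentration (100%), four-parameter fit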
Format: cell-based
Assay Setup: in the presence of 0.1% casein (no HSA); geometric mean; read-out: Relative cAMP EC50, hGIPR
Starred links: 1 amine or outer side, 2 acyl side, 3 side chain; linkers in the order of their positions; H or OH if unused. Non-standard residues stand in square brackets, D forms with d. Groups on a side chain read outwards from the residue. No end group written: not given here. *: point of attachment. C18 diacid = O=C(O)CCCCCCCCCCCCCCCCC(=O)*; γGlu = O=C(O)[C@H](CCC(=O)[*:2])N[*:1]; αMe4Pal = C[C@](N)(Cc1ccncc1)C(=O)O; αMeY = C[C@](N)(Cc1ccc(O)cc1)C(=O)O; 4Pal = N[C@@H](Cc1ccncc1)C(=O)O; αMeL = CC(C)C[C@](C)(N)C(=O)O; Orn = NCCC[C@H](N)C(=O)O; AEEA = NCCOCCOCC(=O)O; Aib = CC(C)(N)C(=O)O
Value Kind: EC50 (nM)
Answers are plain numbers, in nM.

# annotated cases, reported EC50 shown
substance="Y[Aib]QGTFTSD[4Pal]SQ[αMeL]LD[Orn]K([dE-γGlu-C18 diacid])AQ[αMe4Pal]AFIE[αMeY]LLEGGPSSGAPPPSGSEE-NH2 [Example 1058]" value_kind=EC50 units_text=nM experimental_result=0.139
substance="H-Y[Aib]QGTFTSDFS[Orn][αMeL]LDKK([AEEA-γGlu-γGlu-C18 diacid])AQ[Aib]AFIEYLLE[Aib]GHSSGAPPPSGS-NH2 [Example 243]" value_kind=EC50 units_text=nM experimental_result=0.178
substance="Y[Aib]QGTFTSD[4Pal]SQ[αMeL]LDKK([dE-γGlu-dE-C18 diacid])AQ[αMe4Pal]AFIEYLIE[Aib]GPSSGAPPPSGS-NH2 [Example 923]" value_kind=EC50 units_text=nM experimental_result=0.123
substance="H-Y[Aib]QGTFTSDFSK[αMeL]LDKK([γGlu-γGlu-C18 diacid])AQ[Aib]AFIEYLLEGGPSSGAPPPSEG-NH2 [Example 58]" value_kind=EC50 units_text=nM experimental_result=0.175
substance="H-Y[Aib]QGTFTSD[4Pal]SR[αMeL]LDKK([AEEA-γGlu-C18 diacid])AQ[αMe4Pal]AFIEYLIE[Aib]GPSSGAPPPSGS-NH2 [Example 809]" value_kind=EC50 units_text=nM experimental_result=0.194

Exercise: Reported EC50 for H-Y[Aib]QGTFTSD[4Pal]S[Orn][αMeL]LD[Orn]K([γGlu-γGlu-C18 diacid])AQ[αMe4Pal]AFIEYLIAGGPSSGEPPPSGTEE-NH2 [Example 985] : what is it?
Solution: 0.34

====

Assay System: hGcgR (Homo sapiens, UniProt P47871)
Sequence (P47871 26-477): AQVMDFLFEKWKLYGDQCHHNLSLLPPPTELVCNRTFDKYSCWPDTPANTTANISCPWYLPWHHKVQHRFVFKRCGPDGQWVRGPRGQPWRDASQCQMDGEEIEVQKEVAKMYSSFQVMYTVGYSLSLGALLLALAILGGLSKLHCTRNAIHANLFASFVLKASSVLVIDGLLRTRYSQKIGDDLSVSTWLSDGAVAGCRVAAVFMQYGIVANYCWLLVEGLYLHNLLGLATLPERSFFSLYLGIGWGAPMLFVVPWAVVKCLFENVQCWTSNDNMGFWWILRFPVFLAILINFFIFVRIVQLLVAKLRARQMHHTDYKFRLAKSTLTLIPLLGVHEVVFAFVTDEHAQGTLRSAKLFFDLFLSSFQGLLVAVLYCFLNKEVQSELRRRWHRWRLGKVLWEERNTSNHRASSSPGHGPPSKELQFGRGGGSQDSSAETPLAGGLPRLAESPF
Run Description: Functional cAMP activation in the presence of 0.1% casein (no HSA);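 on Relative cAMP EC50, hGcgR: intracellular cAMP rise after 30 min at 37 °C, read by HTRF against a cAMP standard curve, scaled from buffer only (0%) to maximal control ligand response (100%)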
Type: cell-based
Assay Setup: in the presence of 0.1% casein (no HSA); geometric mean; read-out: Relative cAMP EC50, hGcgR
Starred links: 1 amine or outer side, 2 acyl side, 3 side chain; linkers in the order of their positions; H or OH if unused. Non-standard residues stand in square brackets, D forms with d. Groups on a side chain read outwards from the residue. *: point of attachment. C20 diacid = O=C(O)CCCCCCCCCCCCCCCCCCC(=O)*; C18 diacid = O=C(O)CCCCCCCCCCCCCCCCC(=O)*; Phe(4-CN) = N#Cc1ccc(C[C@H](N)C(=O)O)cc1; αMePhe(2-F) = C[C@](N)(Cc1ccccc1F)C(=O)O; γGlu = O=C(O)[C@H](CCC(=O)[*:2])N[*:1]; αMe4Pal = C[C@](N)(Cc1ccncc1)C(=O)O; αMeY = C[C@](N)(Cc1ccc(O)cc1)C(=O)O; 4Pal = N[C@@H](Cc1ccncc1)C(=O)O; αMeL = CC(C)C[C@](C)(N)C(=O)O; αMeS = C[C@](N)(CO)C(=O)O; Orn = NCCC[C@H](N)C(=O)O; AEEA = NCCOCCOCC(=O)O; Aib = CC(C)(N)C(=O)O
// returns Condition not met unless EC50 is strictly below 6 nM, in which case Condition met

Solved entries:
substance="H-Y[Aib]QGT[αMePhe(2-F)]TSDYSKLLDKIAQK([AEEA-γGlu-C20 diacid])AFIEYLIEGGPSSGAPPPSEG-NH2 [Example 339]" class="Condition not met"
substance="H-Y[Aib]QGTFTSDFS[Orn][αMeL]LDKK([AEEA-AEEA-γGlu-C18 diacid])AQ[Aib]AFIEYLLE[Aib]GHSSGAPPPSGS-NH2 [Example 181]" class="Condition not met"
substance="H-Y[Aib]QGT[αMePhe(2-F)]TSD[4Pal][αMeS]I[αMeL]LD[Orn]K([AEEA-γGlu-C18 diacid])AQ[αMe4Pal]EFI[dE][αMeY]LIEGGPSSGEPPPTGE-NH2 [Example 1143]" class="Condition met"
substance="H-Y[Aib]QGTFTSDFSK[αMeL]LDKK([AEEA-AEEA-γGlu-C18 diacid])AQ[Aib]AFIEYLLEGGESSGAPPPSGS-NH2 [Example 147]" class="Condition met"

Below: the item to evaluate.
Exercise: Hi there! Is EC50 for H-Y[Aib]QGT[αMePhe(2-F)]TSD[Phe(4-CN)]SKLLDKIAQK([AEEA-γGlu-C20 diacid])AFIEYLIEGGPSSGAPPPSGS-NH2 [Example 363] below 6 nM, do you know?
Solution: Condition not met

====

Assay System: hGLP-1R (Homo sapiens)
Sequence (P43220 24-463): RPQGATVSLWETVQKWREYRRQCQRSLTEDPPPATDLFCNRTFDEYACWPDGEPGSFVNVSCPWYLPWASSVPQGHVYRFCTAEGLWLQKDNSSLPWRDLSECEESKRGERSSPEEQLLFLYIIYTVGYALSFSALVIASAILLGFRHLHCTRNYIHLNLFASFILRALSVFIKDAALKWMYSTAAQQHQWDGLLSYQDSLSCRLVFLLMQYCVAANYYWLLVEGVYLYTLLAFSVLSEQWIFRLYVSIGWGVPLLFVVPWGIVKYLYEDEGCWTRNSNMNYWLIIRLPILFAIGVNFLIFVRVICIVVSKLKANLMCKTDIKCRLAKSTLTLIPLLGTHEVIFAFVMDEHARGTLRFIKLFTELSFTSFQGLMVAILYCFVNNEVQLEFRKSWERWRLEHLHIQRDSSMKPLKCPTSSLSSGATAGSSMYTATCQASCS
Run Description: Functional cAMP activity in the presence of 1% HSA
Type: cell-based
Assay Setup: HEK-293 clonal cell line, in the presence of 1% HSA; geometric mean of relative EC50; read-out: cAMP Rel EC50, hGLP-1R
Starred links: 1 amine or outer side, 2 acyl side, 3 side chain; linkers in the order of their positions; H or OH if unused. Non-standard residues stand in square brackets, D forms with d. Groups on a side chain read outwards from the residue. No end group written: not given here. *: point of attachment. C18 diacid = O=C(O)CCCCCCCCCCCCCCCCC(=O)*; γGlu = O=C(O)[C@H](CCC(=O)[*:2])N[*:1]; αMe4Pal = C[C@](N)(Cc1ccncc1)C(=O)O; αMeY = C[C@](N)(Cc1ccc(O)cc1)C(=O)O; 4Pal = N[C@@H](Cc1ccncc1)C(=O)O; αMeL = CC(C)C[C@](C)(N)C(=O)O; Orn = NCCC[C@H](N)C(=O)O; Aib = CC(C)(N)C(=O)O
So I've got a bunch of substances here, and I need their EC50 values.
One number for each entry, in nM.

Answered cases to consult:
substance="Y[Aib]QGTFTSD[4Pal]SQ[αMeL]LDKK([γGlu-γGlu-C18 diacid])AQ[αMe4Pal]AFIE[αMe4Pal]LIE[Aib]GPSSGAPPPSGSEE-NH2 [Example 1122]" value_kind=EC50 experimental_result=177
substance="H-Y[Aib]QGTFTSD[4Pal]S[Orn][αMeL]LD[Orn]K([γGlu-γGlu-C18 diacid])AQ[αMe4Pal][Orn]FIE[αMeY]LLAGGPSSGAPPPSGSEE-NH2 [Example 997]" value_kind=EC50 experimental_result=1880
substance="H-Y[Aib]QGTFTSDFS[Orn][αMeL]LD[Orn]K([γGlu-γGlu-C18 diacid])AQ[Aib]AFIE[αMe4Pal]LLEGGPSSGAPPPGGSEE-NH2 [Example 1050]" value_kind=EC50 experimental_result=1240

Exercise: Entry under review: H-Y[Aib]QGTFTSD[4Pal]SQ[αMeL]LD[Orn]K([γGlu-γGlu-C18 diacid])AQ[αMe4Pal]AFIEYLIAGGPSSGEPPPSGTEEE-NH2 [Example 986] . Reported EC50?
Solution: 380
